The values you see were collected from patent US8124647B2.

Assay Target: human androgen receptor (Homo sapiens, UniProt P10275)
Construct: expressed in transfected cells; host or cells: CHO cells, cell line CHO-AR-pMMTV-LUC 1G12-A5-CA
Sequence (P10275 whole entry): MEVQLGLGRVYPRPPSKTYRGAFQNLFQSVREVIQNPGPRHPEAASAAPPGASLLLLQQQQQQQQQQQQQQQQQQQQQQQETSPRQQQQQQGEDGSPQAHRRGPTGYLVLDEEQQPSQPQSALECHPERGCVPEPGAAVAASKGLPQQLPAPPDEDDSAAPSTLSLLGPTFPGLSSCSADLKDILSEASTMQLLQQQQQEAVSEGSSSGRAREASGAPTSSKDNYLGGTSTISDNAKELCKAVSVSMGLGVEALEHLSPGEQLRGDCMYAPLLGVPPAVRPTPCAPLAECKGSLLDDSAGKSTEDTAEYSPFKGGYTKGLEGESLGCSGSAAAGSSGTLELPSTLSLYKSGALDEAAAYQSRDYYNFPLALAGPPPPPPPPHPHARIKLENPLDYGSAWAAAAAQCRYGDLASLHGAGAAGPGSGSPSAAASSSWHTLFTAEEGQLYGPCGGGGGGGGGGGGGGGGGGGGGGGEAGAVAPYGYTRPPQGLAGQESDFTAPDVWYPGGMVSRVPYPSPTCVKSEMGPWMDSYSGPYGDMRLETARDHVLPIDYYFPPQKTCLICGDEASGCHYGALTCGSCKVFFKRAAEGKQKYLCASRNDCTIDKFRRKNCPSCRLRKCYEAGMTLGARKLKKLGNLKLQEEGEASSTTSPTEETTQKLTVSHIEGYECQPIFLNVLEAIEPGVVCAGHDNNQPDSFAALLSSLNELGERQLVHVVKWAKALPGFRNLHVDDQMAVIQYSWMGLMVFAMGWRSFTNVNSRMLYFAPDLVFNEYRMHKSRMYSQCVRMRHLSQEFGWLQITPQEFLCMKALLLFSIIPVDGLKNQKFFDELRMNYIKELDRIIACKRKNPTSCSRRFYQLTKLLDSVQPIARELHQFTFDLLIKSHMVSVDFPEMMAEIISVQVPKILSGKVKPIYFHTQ
Protocol Text: cell-based
Conditions Used: antiandrogenic activity, in the presence of 1 nM DHT; read-out: ant EC50
pEC50: −log10 of the molar value.
Each record here notes measured pEC50.

Example compounds with recorded pEC50:
[
  {
    "Smi": "COc1ccc2c(Sc3ccccc3[N+](=O)[O-])cn(Cc3ccc(F)cc3)c2c1",
    "pEC50": "< 5.00"
  },
  {
    "Smi": "COc1ccc2c(Sc3ccccc3[N+](=O)[O-])cn(Cc3cccc(Cl)c3)c2c1",
    "pEC50": "< 5.00"
  },
  {
    "Smi": "COc1ccc2c(Sc3ccccc3[N+](=O)[O-])cn(Cc3ccc(C)cc3)c2c1",
    "pEC50": "< 5.00"
  }
]

# pEC50 lookup, item COc1ccc2c(c1)c(Sc1ccccc1[N+](=O)[O-])cn2Cc1ccccc1 5.00 to 6.00

###

Each record here notes measured EC50.
Assay Target: human androgen receptor (Homo sapiens)
Construct: expressed in transfected cells; host or cells: CHO cells, cell line CHO-AR-pMMTV-LUC 1G12-A5-CA
Protocol Text: androgenic activity (EC50 and intrinsic activity), transactivation bioassay in CHO-AR-pMMTV-LUC cells (Table 4)
Assay type: cell-based
Conditions Used: androgenic activity, read-out: ago EC50

[
  {
    "Smi": "COc1ccc2c(Sc3ccccc3[N+](=O)[O-])cn(Cc3ccc(Cl)cc3)c2c1",
    "EC50": "< 1000 nM"
  },
  {
    "Smi": "COc1ccc2c(Sc3ccccc3[N+](=O)[O-])cn(CC3CCCCC3)c2c1",
    "EC50": "5 to 100 nM"
  }
]

# EC50 lookup, item CC(C)CNC(=O)c1ccc2c(Sc3ccccc3[N+](=O)[O-])cn(Cc3cc(F)cc(F)c3)c2c1 5 to 100 nM

Likewise for N#Cc1ccc2c(Sc3ccccc3[N+](=O)[O-])cn(Cc3cc(F)cc(F)c3)c2c1 ? < 5 nM

Likewise for Nc1ccc2c(Sc3ccccc3[N+](=O)[O-])cn(Cc3cc(F)cc(F)c3)c2c1 ? < 1000 nM

Likewise for O=C(O)c1ccc2c(Sc3ccccc3[N+](=O)[O-])cn(Cc3cc(F)cc(F)c3)c2c1 ? < 1000 nM

Likewise for COc1ccc2c(Sc3ccccc3[N+](=O)[O-])cn(Cc3cc(F)cc(C(F)(F)F)c3)c2c1 ? 5 to 100 nM

Likewise for COC(=O)c1ccccc1Sc1cn(Cc2cc(F)cc(F)c2)c2cc(OC)ccc12 ? < 1000 nM

###

Each record here notes measured pEC50.
Assay Target: human androgen receptor (Homo sapiens, UniProt P10275)
Construct: expressed in transfected cells; host or cells: CHO cells, cell line CHO-AR-pMMTV-LUC 1G12-A5-CA
Protocol Text: cell-based
Conditions Used: antiandrogenic activity, in the presence of 1 nM DHT; read-out: ant EC50
pEC50: −log10 of the molar value.

Example compounds with recorded pEC50:
[
  {
    "Compound": "COC(=O)c1ccccc1Sc1cn(Cc2cc(F)cc(F)c2)c2cc(OC)ccc12 [Compound 19]",
    "pEC50": "< 5.00"
  },
  {
    "Compound": "COc1ccc2c(Sc3ccccc3[N+](=O)[O-])cn(Cc3ccc(Cl)c(Cl)c3)c2c1 [Compound 14]",
    "pEC50": "< 5.00"
  },
  {
    "Compound": "CC(C)NC(=O)c1ccc2c(Sc3ccccc3[N+](=O)[O-])cn(Cc3cc(F)cc(F)c3)c2c1 [Compound 46]",
    "pEC50": "7.00 to 8.30"
  }
]

Missing value: pEC50, human androgen receptor (Homo sapiens, UniProt P10275), entry COc1ccc2c([S+]([O-])c3ccccc3[N+](=O)[O-])cn(Cc3cc(F)cc(F)c3)c2c1 (centres unmarked) [Compound 64] . Fill in? > 6.00

Likewise for CN(C)C(=O)CNC(=O)c1ccc2c(Sc3ccccc3[N+](=O)[O-])cn(Cc3cc(F)cc(F)c3)c2c1 [Compound 40] ? < 5.00

Likewise for COc1ccc2c(Sc3ccccc3[N+](=O)[O-])cn(Cc3ccc(Cl)s3)c2c1 [Compound 88] ? < 5.00

Likewise for O=[N+]([O-])c1ccccc1Sc1cn(Cc2cc(F)cc(F)c2)c2cc(Br)ccc12 [Compound 22] ? < 5.00

Likewise for COc1ccc2c(Sc3ccccc3[N+](=O)[O-])cn(Cc3ccccc3C#N)c2c1 [Compound 4] ? 7.00 to 8.30
